# Target Desc: JAK1-JH1JH2 (Homo sapiens (Human), UniProt P23458)
# Sequence (P23458 574-1154): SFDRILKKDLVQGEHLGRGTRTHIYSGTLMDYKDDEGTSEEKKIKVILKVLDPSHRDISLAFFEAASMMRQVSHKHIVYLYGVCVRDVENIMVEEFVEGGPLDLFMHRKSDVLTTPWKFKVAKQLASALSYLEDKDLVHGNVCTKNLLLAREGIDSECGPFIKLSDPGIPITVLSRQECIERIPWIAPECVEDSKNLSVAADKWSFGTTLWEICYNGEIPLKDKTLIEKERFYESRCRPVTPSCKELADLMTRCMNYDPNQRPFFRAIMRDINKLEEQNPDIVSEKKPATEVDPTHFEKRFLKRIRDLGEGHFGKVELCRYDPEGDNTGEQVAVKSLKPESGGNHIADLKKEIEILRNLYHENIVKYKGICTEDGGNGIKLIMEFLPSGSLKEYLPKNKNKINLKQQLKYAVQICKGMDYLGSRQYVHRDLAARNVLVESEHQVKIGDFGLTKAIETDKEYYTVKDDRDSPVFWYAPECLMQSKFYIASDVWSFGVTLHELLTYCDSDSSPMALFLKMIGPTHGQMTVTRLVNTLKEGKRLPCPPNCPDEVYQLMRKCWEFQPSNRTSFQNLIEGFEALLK
pIC50: −log10 of the molar value.
Parameter Measured: pIC50

The following compounds have reported results that may help.
{"columns": ["Structure As Smiles", "Result Value"],
 "data": [
  ["CC(C)(O)CNC(=O)Cc1nc2cnc3[nH]cc(Cl)c3c2n1[C@H]1CC[C@H](CC#N)CC1", 8.49],
  ["N#CC[C@H]1CC[C@H](n2c(CO/N=C(\\N)CN3CCCCC3)nc3cnc4[nH]ccc4c32)CC1", 8.43],
  ["CC(C)(CO)CNC(=O)Cc1nc2cnc3[nH]ccc3c2n1[C@H]1CC[C@H](CC#N)CC1", 10.00],
  ["N#CC[C@H]1CC[C@H](n2c(CC(=O)N3CCC(N4CCOCC4)CC3)nc3cnc4[nH]ccc4c32)CC1", 10.00],
  ["N#CC[C@H]1CC[C@H](n2c(CC(=O)N3CC[C@@H](O)C3)nc3cnc4[nH]ccc4c32)CC1", 9.15],
  ["N#CC[C@H]1CC[C@H](n2c(-c3cn[nH]c3)nc3cnc4[nH]ccc4c32)CC1", 9.15],
  ["N#CC[C@H]1CC[C@H](n2c(CNC(=O)c3cn[nH]c3)nc3cnc4[nH]ccc4c32)CC1", 9.00],
  ["N#CC[C@H]1CC[C@H](n2c(-c3nc[nH]n3)nc3cnc4[nH]ccc4c32)CC1", 10.00]
]}

I. N#CC[C@H]1CC[C@H](n2c(-c3ccc(C(=O)c4ccc(CO)cc4)cc3)nc3cnc4[nH]ccc4c32)CC1
II. N#CC[C@H]1CC[C@H](n2c(CC(=O)NCC34CC5CC(CC(O)(C5)C3)C4)nc3cnc4[nH]ccc4c32)CC1
QUERY: # return whichever of I and II has the smaller pIC50 Please reply using the label of the selected record.
RESULT: I
(I: 9.15, II: 10.00)

Data provenance: patent US10981911B2
